Task for the reader: assign each of the following binders its reported kon.
Target: T1, recombinant C-terminal ApoE fragment G200-HIS (ApoE-G200-H299-10xHIS) (human, UniProt P02649 218-317)
T1 construct: also called G200-HIS fragment
T1 sequence (P02649 other isoform, or with tags, fused parts or gaps limits assumed): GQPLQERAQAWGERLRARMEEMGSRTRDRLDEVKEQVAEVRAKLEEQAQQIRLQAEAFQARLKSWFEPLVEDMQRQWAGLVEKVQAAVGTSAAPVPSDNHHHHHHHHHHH
Assay: SPR (Biacore 8K), G200-HIS amine-coupled on CM5, antibody as analyte, bivalent analyte fit (ka1)
Mention the unit after the number when you answer.

IN: Please give the measured kon for this binder: 17G4, recombinant IgG2c antibody (antibody, V domains shown) VH: EVQLVESGGGLVKPGGSLKLSCSASGFTFSRYAMSWVRQSPEKRLEWVAEINSGGSYSFYSDTVTGRFTISRDNAKNTLFLEMSSLRSEDTAIYYCARQLTGTDYYGTDYWGQGTSVTVSS VL: DVLMTQTPLSLPVSHGDQASISCRSSQSLLYSNGNTYLEWYLQKPGQSPKLLIYKVSNRFSGVPDRFSGSGSGTDFTLKISRVEAEDLGVYYCFQGSHVPYTFGGGTKLEIK
OUT: 8.73e+06 M⁻¹ s⁻¹

IN: For the binder 23D5, recombinant IgG2c antibody (antibody, V domains shown) VH: EVQLVESGGGLVKPGGSLKLSCSASGFTFSRYAMSWVRQSPEKRLEWVAEINSGGSYSFYSDTVTGRFTISRDNAKNTLFLEMSSLRSEDTAIYYCARQLSGTDYYGTDYWGQGTSVTVSS VL: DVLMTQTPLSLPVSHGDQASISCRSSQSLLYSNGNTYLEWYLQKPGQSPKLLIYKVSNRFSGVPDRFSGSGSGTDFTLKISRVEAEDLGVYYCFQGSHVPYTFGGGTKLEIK , what kon is on record?
OUT: 260000 M⁻¹ s⁻¹

IN: # query: kon of entry 7C7, recombinant IgG2c antibody (antibody, V domains shown) VH: EVQLVESGGGLVKPGGSLRLSCAASGFTFSSFAMSWVRQSPERRLEWVAEISRGGGYAFYSDTVTGRFTISRDNARNTLFLEMGSLRSEDTAMYYCSRQLTGTDYYAMDYWGQGTSVTVSS VL: DVLLTQTPLSLFVSLGDQASISCRSSQSIVYTNGNTYLEWYLQKPGQSPKLLIYKVSNRFSGVPDRFSGSGSGTDFTLKISRVEAEDLGVYYCFQGSQVPYTFGGGTKLELK
OUT: 2.88e+06 M⁻¹ s⁻¹
